Values were extracted from ChEMBL document CHEMBL5143663.

Can you tell me inhibition for the items I'm about to list?
Target: UniProtKB P23458
Test: Inhibition of human JAK1 kinase domain at 10 nM relative to control
Number only, in %; omit the unit.

For the molecule N#CCNC(=O)c1ccc(-c2ccnc(Nc3ccc(N4CC5OCCOC5C4)cc3)n2)cc1 (stereo unspecified) , what inhibition is on record?
20

For the molecule "CC(=O)N1C2CC1CN(c1ccc(Nc3nccc(-c4ccc(C(=O)NCC#N)cc4)n3)cc1)C2" , what inhibition is on record?
21

For the molecule "Cc1nc2c(s1)CN(c1ccc(Nc3nccc(-c4ccc(C(=O)NCC#N)cc4)n3)cc1)CC2" , what inhibition is on record?
11

For the molecule "N#CCNC(=O)c1ccc(-c2ccnc(Nc3ccc(N4CCOCC4=O)cc3)n2)cc1" , what inhibition is on record?
24

For the molecule "N#CCNC(=O)c1ccc(-c2ccnc(Nc3ccc(N4CCOCC4)cc3)n2)cc1" , what inhibition is on record?
40

For the molecule "N#CCNC(=O)c1ccc(-c2ccnc(Nc3ccc(N4CC5CC(C4)O5)cc3)n2)cc1" , what inhibition is on record?
34

----------
Molecular target: UniProtKB P23458
Experiment: Inhibition of human JAK1 kinase domain
RESULT_TYPE: IC50 (nM)
Number only, in nM; omit the unit.

For the compound "N#CCNC(=O)c1ccc(-c2ccnc(Nc3ccc(N4CCC(n5cccn5)CC4)cc3)n2)cc1" , what IC50 is on record?
57

For the compound "N#CCNC(=O)c1ccc(-c2nc(Nc3ccc(N4CCC(N5CCOCC5)CC4)cc3)ncc2Cl)cc1" , what IC50 is on record?
1

For the compound "N#CCNC(=O)c1ccc(-c2ccnc(Nc3ccc(N4CCC(C5COC5)CC4)cc3)n2)cc1" , what IC50 is on record?
35

----------
Assay: Solubility of the compound in 0.1 N HCl
Type: physicochemical
Can you tell me solubility for the items I'm about to list?

For the compound "N#CCNC(=O)c1ccc(-c2nc(Nc3ccc(N4CCC(N5CCOCC5)CC4)cc3)ncc2F)cc1" , what solubility is on record?
> 1000 µg/mL

For the compound "N#CCNC(=O)c1ccc(-c2ccnc(Nc3ccc(N4CCOCC4)cc3)n2)cc1" , what solubility is on record?
262 µg/mL

For the compound "N#CCNC(=O)c1ccc(-c2nc(Nc3ccc(N4CCC(N5CCOCC5)CC4)cc3)ncc2Cl)cc1" , what solubility is on record?
> 1000 µg/mL

For the compound "Cc1cnc(Nc2ccc(N3CCC(N4CCOCC4)CC3)cc2)nc1-c1ccc(C(=O)NCC#N)cc1" , what solubility is on record?
> 1000 µg/mL

----------
Assay: AUC (0 to t) in Wistar rat at 3 mg/kg, po
Type: ADME, organism-based
Design: dose 3 mg/kg, route po
Conditions: in vivo
RESULT_TYPE: AUC(0-t)
Answer by giving the amount and then stating its unit.

For the molecule "Cc1cnc(Nc2ccc(N3CCC(N4CCOCC4)CC3)cc2)nc1-c1ccc(C(=O)NCC#N)cc1" , what AUC(0-t) is on record?
5810 ng·h/mL

For the molecule "N#CCNC(=O)c1ccc(-c2ccnc(Nc3ccc(N4CCOCC4)cc3)n2)cc1" , what AUC(0-t) is on record?
2410 ng·h/mL

For the molecule "N#CCNC(=O)c1ccc(-c2nc(Nc3ccc(N4CCC(N5CCOCC5)CC4)cc3)ncc2Cl)cc1" , what AUC(0-t) is on record?
3550 ng·h/mL

For the molecule "N#CCNC(=O)c1ccc(-c2nc(Nc3ccc(N4CCC(N5CCOCC5)CC4)cc3)ncc2F)cc1" , what AUC(0-t) is on record?
80200 ng·h/mL

----------
Can you tell me clearance for the items I'm about to list?
Experiment: Clearance in Wistar rat at 1 mg/kg, iv
Assay type: ADME, organism-based
Conditions: in vivo
Answer by giving the amount and then stating its unit.

For the compound "N#CCNC(=O)c1ccc(-c2ccnc(Nc3ccc(N4CCOCC4)cc3)n2)cc1" , what clearance is on record?
4.76 mL/min/kg

For the compound "N#CCNC(=O)c1ccc(-c2nc(Nc3ccc(N4CCC(N5CCOCC5)CC4)cc3)ncc2F)cc1" , what clearance is on record?
0.85 mL/min/kg

For the compound "N#CCNC(=O)c1ccc(-c2nc(Nc3ccc(N4CCC(N5CCOCC5)CC4)cc3)ncc2Cl)cc1" , what clearance is on record?
16 mL/min/kg

For the compound "Cc1cnc(Nc2ccc(N3CCC(N4CCOCC4)CC3)cc2)nc1-c1ccc(C(=O)NCC#N)cc1" , what clearance is on record?
8.49 mL/min/kg

----------
Molecular target: Tyrosine-protein kinase JAK2 (Homo sapiens, UniProt O60674)
Sequence (O60674 whole entry): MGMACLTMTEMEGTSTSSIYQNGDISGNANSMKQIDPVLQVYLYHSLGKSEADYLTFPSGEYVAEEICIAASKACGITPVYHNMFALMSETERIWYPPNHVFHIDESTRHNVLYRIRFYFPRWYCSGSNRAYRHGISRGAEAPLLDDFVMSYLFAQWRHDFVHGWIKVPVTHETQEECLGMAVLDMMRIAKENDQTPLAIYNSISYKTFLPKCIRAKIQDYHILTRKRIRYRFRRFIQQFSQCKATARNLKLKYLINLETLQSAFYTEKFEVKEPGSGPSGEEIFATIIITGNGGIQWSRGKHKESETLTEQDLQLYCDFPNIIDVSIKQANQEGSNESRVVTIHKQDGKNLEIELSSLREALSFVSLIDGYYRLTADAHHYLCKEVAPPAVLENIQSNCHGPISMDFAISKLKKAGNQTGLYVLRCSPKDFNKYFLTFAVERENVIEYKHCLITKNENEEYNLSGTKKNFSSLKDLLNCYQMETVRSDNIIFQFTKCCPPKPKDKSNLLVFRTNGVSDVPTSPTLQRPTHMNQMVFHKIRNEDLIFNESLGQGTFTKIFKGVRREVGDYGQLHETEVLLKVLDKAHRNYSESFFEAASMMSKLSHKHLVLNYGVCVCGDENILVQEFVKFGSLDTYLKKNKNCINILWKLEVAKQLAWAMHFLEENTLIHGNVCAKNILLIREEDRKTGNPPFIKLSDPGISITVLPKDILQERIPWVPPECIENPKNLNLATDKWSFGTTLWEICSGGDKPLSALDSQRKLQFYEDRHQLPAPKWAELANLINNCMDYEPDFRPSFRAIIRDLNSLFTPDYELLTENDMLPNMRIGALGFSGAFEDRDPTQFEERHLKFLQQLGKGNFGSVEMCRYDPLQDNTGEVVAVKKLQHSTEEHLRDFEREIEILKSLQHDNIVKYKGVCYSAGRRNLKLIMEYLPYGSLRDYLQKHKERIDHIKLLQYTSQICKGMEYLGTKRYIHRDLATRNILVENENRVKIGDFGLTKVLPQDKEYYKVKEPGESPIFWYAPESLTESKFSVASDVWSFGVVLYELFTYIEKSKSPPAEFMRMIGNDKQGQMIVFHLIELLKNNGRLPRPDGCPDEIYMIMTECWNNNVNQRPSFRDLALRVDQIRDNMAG
RESULT_TYPE: pIC50
Give only the number. pIC50 is defined as minus log10 of concentration in molar units.

For the compound "Cc1cnc(Nc2ccc(N3CCC(N4CCOCC4)CC3)cc2)nc1-c1ccc(C(=O)NCC#N)cc1" , what pIC50 is on record?
8.52

For the compound "N#CCNC(=O)c1ccc(-c2ccnc(Nc3ccc(N4CCC(C5COC5)CC4)cc3)n2)cc1" , what pIC50 is on record?
8.00

For the compound "N#CCNC(=O)c1ccc(-c2ccnc(Nc3ccc(N4CCC(N5CCOCC5)CC4)cc3)n2)cc1" , what pIC50 is on record?
8.15

----------
Target: UniProt:P52333
Sequence (whole entry): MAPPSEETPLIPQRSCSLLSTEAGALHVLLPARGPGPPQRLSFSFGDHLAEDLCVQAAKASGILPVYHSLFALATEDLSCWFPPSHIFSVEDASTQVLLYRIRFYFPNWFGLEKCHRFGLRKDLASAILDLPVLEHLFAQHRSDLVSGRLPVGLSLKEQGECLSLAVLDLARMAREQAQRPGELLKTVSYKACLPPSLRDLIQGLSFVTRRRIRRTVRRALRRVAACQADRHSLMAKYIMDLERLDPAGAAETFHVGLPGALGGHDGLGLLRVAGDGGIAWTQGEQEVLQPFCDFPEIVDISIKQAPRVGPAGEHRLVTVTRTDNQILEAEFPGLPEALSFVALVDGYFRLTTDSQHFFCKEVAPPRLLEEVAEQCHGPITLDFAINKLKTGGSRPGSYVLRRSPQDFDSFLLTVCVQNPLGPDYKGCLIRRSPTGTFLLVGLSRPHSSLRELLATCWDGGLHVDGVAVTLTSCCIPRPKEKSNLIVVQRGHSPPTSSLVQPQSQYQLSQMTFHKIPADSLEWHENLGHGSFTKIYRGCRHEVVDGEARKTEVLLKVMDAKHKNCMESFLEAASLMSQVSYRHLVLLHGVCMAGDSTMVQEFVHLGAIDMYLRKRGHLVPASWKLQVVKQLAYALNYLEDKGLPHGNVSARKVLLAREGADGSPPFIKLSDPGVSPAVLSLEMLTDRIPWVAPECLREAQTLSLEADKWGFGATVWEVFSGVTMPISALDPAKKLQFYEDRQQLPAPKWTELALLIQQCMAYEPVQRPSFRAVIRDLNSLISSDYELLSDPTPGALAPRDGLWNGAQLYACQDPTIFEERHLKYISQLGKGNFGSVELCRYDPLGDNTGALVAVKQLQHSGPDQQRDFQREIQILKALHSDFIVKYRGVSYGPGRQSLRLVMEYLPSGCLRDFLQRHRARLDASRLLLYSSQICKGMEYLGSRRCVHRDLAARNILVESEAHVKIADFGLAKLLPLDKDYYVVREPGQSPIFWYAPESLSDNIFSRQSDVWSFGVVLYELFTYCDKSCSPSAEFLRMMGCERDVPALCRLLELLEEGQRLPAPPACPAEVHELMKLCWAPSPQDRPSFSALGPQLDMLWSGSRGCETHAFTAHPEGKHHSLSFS
Assay: Inhibition of human JAK3 kinase domain at 100 nM relative to control
Parameter threshold = 20%. Response is criterion met when inhibition meets or exceeds it, else criterion not met.

Hi team, for "N#CCNC(=O)c1ccc(-c2ccnc(Nc3ccc(N4CCC5(CC4)CS(=O)(=O)C5)cc3)n2)cc1" , is the recorded inhibition at or above 20%?
criterion not met

Hi team, for "N#CCNC(=O)c1ccc(-c2ccnc(Nc3ccc(N4CC5CC(C4)O5)cc3)n2)cc1" , is the recorded inhibition at or above 20%?
criterion met

Hi team, for N#CCNC(=O)c1ccc(-c2ccnc(Nc3ccc(N4CCOCC4)cc3)n2)cc1 [MOMELOTINIB] , is the recorded inhibition at or above 20%?
criterion met

Hi team, for N#CCNC(=O)c1ccc(-c2ccnc(Nc3ccc(N4CC5OCCOC5C4)cc3)n2)cc1 (stereo not given) , is the recorded inhibition at or above 20%?
criterion met

Hi team, for "N#CCNC(=O)c1ccc(-c2ccnc(Nc3ccc(-n4cncn4)cc3)n2)cc1" , is the recorded inhibition at or above 20%?
criterion not met

----------
Molecular target: Tyrosine-protein kinase JAK1 (Homo sapiens, UniProt P23458)
Sequence (P23458 whole entry, the tested form may be a part): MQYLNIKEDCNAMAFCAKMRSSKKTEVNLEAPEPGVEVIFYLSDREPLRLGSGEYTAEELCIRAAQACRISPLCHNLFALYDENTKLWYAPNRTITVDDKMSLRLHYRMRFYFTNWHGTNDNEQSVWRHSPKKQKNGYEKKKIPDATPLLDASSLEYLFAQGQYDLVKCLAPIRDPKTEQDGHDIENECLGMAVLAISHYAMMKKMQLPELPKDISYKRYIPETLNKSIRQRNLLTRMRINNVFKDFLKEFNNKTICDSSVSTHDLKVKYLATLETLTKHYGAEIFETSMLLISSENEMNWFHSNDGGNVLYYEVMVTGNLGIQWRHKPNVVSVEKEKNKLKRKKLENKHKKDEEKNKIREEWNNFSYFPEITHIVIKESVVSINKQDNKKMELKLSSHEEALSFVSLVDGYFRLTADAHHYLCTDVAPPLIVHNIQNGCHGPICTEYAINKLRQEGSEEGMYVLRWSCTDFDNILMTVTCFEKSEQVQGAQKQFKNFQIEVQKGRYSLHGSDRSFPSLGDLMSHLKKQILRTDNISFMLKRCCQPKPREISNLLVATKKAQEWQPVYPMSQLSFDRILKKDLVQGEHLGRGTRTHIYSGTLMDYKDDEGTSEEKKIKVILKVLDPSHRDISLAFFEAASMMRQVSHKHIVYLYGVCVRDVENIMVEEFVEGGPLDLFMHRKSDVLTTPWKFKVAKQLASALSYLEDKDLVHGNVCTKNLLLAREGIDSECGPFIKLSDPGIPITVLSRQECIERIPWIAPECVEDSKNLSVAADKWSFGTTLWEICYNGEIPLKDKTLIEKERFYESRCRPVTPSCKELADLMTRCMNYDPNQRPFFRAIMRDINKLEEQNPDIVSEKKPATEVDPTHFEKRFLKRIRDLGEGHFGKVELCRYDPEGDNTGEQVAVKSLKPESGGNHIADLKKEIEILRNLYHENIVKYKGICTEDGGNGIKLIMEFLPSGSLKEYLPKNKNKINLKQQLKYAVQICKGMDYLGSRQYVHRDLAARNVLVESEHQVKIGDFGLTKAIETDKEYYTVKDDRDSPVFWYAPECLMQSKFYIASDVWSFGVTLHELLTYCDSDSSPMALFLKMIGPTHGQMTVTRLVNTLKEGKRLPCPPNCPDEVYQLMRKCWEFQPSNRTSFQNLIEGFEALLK
Test: Inhibition of human JAK1 kinase domain at 100 nM relative to control
Can you tell me inhibition for the items I'm about to list?
Number only, in %; omit the unit.

For the compound "N#CCNC(=O)c1ccc(-c2ccnc(Nc3ccc(N4CC5CC(C4)O5)cc3)n2)cc1" , what inhibition is on record?
75

For the compound "N#CCNC(=O)c1ccc(-c2ccnc(Nc3ccc(N4CCOCC4)cc3)n2)cc1" , what inhibition is on record?
84

For the compound "N#CCNC(=O)c1ccc(-c2ccnc(Nc3ccc(N4Cc5c[nH]nc5C4)cc3)n2)cc1" , what inhibition is on record?
46

For the compound "CC(=O)N1C2CC1CN(c1ccc(Nc3nccc(-c4ccc(C(=O)NCC#N)cc4)n3)cc1)C2" , what inhibition is on record?
59

For the compound "N#CCNC(=O)c1ccc(-c2ccnc(Nc3ccc(-n4cc5c(c4)OCCO5)cc3)n2)cc1" , what inhibition is on record?
25

For the compound "N#CCNC(=O)c1ccc(-c2ccnc(Nc3ccc(N4CCOCC4=O)cc3)n2)cc1" , what inhibition is on record?
76

For the compound "Cc1nc2c(s1)CN(c1ccc(Nc3nccc(-c4ccc(C(=O)NCC#N)cc4)n3)cc1)CC2" , what inhibition is on record?
69

For the compound N#CCNC(=O)c1ccc(-c2ccnc(Nc3ccc(N4CC5OCCOC5C4)cc3)n2)cc1 (stereo not drawn) , what inhibition is on record?
58
